- study-target: Beta3 (Homo sapiens, UniProt P13945)
- Sequence (P13945 whole entry): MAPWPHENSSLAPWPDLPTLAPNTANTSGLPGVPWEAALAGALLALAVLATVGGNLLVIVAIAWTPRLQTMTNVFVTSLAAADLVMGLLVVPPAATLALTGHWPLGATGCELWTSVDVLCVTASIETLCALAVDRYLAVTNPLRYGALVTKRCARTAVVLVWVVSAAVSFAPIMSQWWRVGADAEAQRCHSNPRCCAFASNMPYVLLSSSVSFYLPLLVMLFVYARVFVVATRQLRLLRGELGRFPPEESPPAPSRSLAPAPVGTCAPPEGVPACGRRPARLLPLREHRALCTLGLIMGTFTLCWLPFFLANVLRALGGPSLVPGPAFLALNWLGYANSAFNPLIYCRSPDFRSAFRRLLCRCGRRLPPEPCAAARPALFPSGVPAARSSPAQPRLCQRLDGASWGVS
- procedure-details: PDSP radioligand binding assay
- condition-set: Table 5
measured-metric: Ki

Request: Under Beta3 (Homo sapiens, UniProt P13945), report Ki for COc1ccc(N2CCN(CCCNC(=O)Cn3c(=O)c4cccn4c4c(C)ccnc43)CC2)cc1 [Compound 1{3}]
Result: > 10 µM

----------
- study-target: M5 (Homo sapiens)
- Sequence (P08912 whole entry): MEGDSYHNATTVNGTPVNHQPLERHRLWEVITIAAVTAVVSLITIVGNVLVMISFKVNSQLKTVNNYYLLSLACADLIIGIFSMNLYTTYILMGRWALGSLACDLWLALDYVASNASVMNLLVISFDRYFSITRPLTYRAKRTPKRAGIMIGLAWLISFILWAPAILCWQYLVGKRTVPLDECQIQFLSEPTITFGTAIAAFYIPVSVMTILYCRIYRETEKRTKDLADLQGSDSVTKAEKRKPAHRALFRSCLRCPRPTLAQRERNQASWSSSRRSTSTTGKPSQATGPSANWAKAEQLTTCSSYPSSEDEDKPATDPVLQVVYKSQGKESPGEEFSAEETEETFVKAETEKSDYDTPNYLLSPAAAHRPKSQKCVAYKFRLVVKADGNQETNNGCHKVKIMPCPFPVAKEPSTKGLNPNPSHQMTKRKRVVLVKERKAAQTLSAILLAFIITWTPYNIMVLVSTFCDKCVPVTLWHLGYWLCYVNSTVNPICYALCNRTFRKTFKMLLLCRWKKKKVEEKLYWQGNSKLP
- procedure-details: PDSP radioligand binding assay
- condition-set: Table 10
measured-metric: Ki

Request: Using known records, supply Ki for "Clc1ccc(CSc2nnc(-c3ccccn3)n2Cc2ccco2)cc1Cl"
Result: 4.42 µM

----------
- study-target: UniProtKB P35372
- Sequence (P35372 whole entry): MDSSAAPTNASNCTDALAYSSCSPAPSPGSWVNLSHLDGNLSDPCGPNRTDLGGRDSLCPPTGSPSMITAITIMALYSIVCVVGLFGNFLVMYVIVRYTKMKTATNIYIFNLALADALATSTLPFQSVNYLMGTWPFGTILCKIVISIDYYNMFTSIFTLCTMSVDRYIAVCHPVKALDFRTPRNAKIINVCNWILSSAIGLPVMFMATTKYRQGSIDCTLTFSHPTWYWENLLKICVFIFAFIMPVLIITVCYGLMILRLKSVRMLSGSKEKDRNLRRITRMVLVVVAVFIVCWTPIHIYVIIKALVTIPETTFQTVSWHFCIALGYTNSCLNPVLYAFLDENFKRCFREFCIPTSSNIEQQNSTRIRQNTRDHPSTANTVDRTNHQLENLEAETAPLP
- procedure-details: High content imaging β-arrestin translocation assay, MOR antagonist (MOR HCS)
- Assay type: cell-based
measured-metric: IC50

Request: Write down measured IC50 (UniProtKB P35372) for this molecule. "COc1ccc(N2CCN(CCCNC(=O)Cn3c(=O)c4cccn4c4ccccc43)CC2)cc1"
Result: > 32 µM
